# TARGET OR SYSTEM: UniProt:P28223
# Sequence (P28223 whole entry): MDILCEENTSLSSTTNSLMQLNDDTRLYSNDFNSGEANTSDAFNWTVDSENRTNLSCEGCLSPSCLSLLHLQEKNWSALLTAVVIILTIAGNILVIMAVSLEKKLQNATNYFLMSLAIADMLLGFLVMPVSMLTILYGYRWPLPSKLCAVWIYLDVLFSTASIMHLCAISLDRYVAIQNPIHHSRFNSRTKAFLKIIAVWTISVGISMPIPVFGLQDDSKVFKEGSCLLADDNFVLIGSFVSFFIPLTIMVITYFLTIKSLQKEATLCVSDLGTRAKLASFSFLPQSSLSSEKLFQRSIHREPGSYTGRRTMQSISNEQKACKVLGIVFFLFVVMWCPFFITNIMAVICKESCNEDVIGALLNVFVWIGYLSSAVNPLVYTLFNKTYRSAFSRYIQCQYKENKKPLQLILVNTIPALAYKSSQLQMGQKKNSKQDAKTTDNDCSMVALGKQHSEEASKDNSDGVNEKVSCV
TEST READOUT: Ki (µM)
Entry rule: numbers only, all in µM.

Let me check: "Cc1cc(NC(=O)Nc2ccc3sccc3c2)sn1" , system UniProt:P28223, measured Ki is 6.31

---

# TARGET OR SYSTEM: 5-HT2C receptor (Homo sapiens)
# PROCEDURE SUMMARY: Antagonistic binding affinity measured against 5-hydroxytryptamine 2C receptor (human clone expressed in 293 cells) using [3H]mesulergine as radioligand
pKi: −log10 of the molar value.
TEST READOUT: pKi

Let me check: "Cc1cc(NC(=O)Nc2ccc3sccc3c2)on1" , system 5-HT2C receptor (Homo sapiens), measured pKi is < 5.20

// switching to the query molecule
Let me check: "Cc1cc(NC(=O)Nc2ccc3c(ccn3C)c2)on1" , system 5-HT2C receptor (Homo sapiens), measured pKi is < 5.20

---

# TARGET OR SYSTEM: 5-hydroxytryptamine receptor 2B (Rattus norvegicus)
# Sequence (P30994 whole entry): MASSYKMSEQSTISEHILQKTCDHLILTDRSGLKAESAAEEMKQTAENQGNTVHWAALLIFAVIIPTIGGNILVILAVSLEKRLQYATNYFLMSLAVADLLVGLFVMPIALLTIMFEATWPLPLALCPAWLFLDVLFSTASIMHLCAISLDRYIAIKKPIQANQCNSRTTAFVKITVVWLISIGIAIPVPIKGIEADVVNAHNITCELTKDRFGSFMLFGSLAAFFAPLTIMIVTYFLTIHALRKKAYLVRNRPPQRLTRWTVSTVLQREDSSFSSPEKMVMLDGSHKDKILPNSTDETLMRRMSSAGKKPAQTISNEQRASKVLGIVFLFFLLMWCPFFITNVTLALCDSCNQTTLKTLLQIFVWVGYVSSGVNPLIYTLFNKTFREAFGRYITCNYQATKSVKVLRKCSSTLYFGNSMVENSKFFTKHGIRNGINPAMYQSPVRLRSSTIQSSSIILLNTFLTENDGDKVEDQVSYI
# PROCEDURE SUMMARY: Antagonistic affinity measured as pA2 value on 5-hydroxytryptamine 2B receptor of the rat stomach fundus
# Format: functional, tissue-based
# STATED CONDITIONS: read-out: pA2 (converted)
The following compounds are listed with their measured Kb values.

Observe how each entry below is paired with its result.
Value of measured Kb for the entry "Cc1cc(NC(=O)Nc2ccc3c(ccn3C)c2)sn1" : 0.0112 µM

Value of measured Kb for the entry "Cc1cc(NC(=O)Nc2ccc3sccc3c2)on1" : 0.0468 µM

New cases:
Value of measured Kb for the entry "Cc1cc(NC(=O)Nc2ccc3sccc3c2)sn1" : 0.0151 µM

Value of measured Kb for the entry "Cc1cc(NC(=O)Nc2ccc3c(ccn3C)c2)on1" : 0.0692 µM

Value of measured Kb for the entry "Cn1ccc2cc(NC(=O)Nc3cccnc3)ccc21" : 0.0389 µM

---

# TARGET OR SYSTEM: D(1A) dopamine receptor (Homo sapiens, UniProt P21728)
# Sequence (P21728 whole entry): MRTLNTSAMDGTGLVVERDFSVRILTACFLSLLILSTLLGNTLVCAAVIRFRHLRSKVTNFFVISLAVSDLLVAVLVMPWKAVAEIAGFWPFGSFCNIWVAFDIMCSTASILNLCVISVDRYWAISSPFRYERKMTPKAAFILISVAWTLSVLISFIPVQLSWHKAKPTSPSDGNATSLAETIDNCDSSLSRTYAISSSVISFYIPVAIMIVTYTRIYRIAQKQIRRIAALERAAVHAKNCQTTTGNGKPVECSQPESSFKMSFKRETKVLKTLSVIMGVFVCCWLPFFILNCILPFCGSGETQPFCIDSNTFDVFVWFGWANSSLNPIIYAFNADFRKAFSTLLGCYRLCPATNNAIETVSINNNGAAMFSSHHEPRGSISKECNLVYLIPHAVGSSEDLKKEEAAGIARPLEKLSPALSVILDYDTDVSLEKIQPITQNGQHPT
# PROCEDURE SUMMARY: The binding affinity (pKi) measured against Dopamine receptor D1 using [3H]-SCH- 23390 as radioligand
TEST READOUT: Ki

Let me check: "Cc1cc(NC(=O)Nc2ccc3c(ccn3C)c2)sn1" , system D(1A) dopamine receptor (Homo sapiens, UniProt P21728), measured Ki is > 10 µM

---

# TARGET OR SYSTEM: D(2) dopamine receptor (Homo sapiens)
# Sequence (P14416 whole entry): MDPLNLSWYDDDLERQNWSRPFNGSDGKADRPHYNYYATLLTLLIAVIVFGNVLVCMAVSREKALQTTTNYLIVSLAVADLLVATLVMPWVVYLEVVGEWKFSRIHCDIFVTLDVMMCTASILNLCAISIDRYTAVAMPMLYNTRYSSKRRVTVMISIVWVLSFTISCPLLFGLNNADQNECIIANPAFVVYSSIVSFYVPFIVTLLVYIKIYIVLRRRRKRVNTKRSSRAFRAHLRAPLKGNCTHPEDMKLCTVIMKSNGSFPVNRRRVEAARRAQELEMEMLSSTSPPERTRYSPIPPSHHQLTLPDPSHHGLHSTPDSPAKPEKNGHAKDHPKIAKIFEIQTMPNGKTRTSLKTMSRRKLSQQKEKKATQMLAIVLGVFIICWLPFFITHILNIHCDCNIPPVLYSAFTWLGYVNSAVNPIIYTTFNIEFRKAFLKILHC
# PROCEDURE SUMMARY: In vitro binding affinity was measured on Dopamine receptor D2
pKi: −log10 of the molar value.
TEST READOUT: pKi

Value of measured pKi for the entry "Cc1cc(NC(=O)Nc2ccc3c(ccn3C)c2)sn1" : < 4.50
